Ref: patent US9382295B2

# Test Details: Water solubility assay (pH 7.8 buffer)
# Assay type: physicochemical
# Conditions Used: pH 7.8
Numbered stars: 1 amine (or outer) side, 2 acyl side, 3 side chain; on linkers, the order of the positions; unused ones are H or OH. Square brackets hold non-standard residues; d marks the D form. Peptide text beside a SMILES is read from it. X30 = C[C@H](CCN(C)Cc1nnn[nH]1)[C@@H](O)[C@H](C(=O)[*:2])N(C)[*:1]; X1 = Cc1cccc(CCC[C@@H](C)[C@@H](O)[C@H](C(=O)[*:2])N(C)[*:1])n1; X4 = C[C@H](C/C=C/c1ncccn1)[C@@H](O)[C@H](C(=O)[*:2])N(C)[*:1]; X18 = C[C@H](CCNCc1ccccc1)[C@@H](O)[C@H](C(=O)[*:2])N(C)[*:1]; X11 = C[C@H](CCN(C)CCC#N)[C@@H](O)[C@H](C(=O)[*:2])N(C)[*:1]; d(aThr) = C[C@@H](O)[C@@H](N)C(=O)O; NMeL = CN[C@@H](CC(C)C)C(=O)O; dNMeL = CN[C@H](CC(C)C)C(=O)O; dNMeV = CN[C@@H](C(=O)O)C(C)C; Hiv = CC(C)[C@H](O)C(=O)O; Sar = CNCC(=O)O
The entries below come with measured solubility at 18 h values attached.

{"columns": ["Compound", "solubility at 18 h"],
 "data": [
  ["CC(C)C[C@@H]1C(=O)N[C@H](CC(C)C)C(=O)N(C)[C@H](C(C)C)C(=O)N(C)[C@H]([C@H](O)[C@H](C)C/C=C/c2ncccn2)C(=O)N[C@H]([C@@H](C)O)C(=O)N(C)CC(=O)N(C)[C@@H](CC(C)C)C(=O)N[C@H](CC(C)C)C(=O)N(C)[C@H](CC(C)C)C(=O)N[C@H](C)C(=O)O[C@@H](C(C)C)C(=O)N1C [Example 15] (cyclo([Hiv][dNMeL][dL][dNMeV][X4][d(aThr)][Sar][NMeL][dL][dNMeL][dA]))", "10 to 25 µM"],
  ["CC(C)C[C@@H]1C(=O)N[C@H](CC(C)C)C(=O)N(C)[C@H](C(C)C)C(=O)N(C)[C@H]([C@H](O)[C@H](C)CCN(C)Cc2nnn[nH]2)C(=O)N[C@H]([C@@H](C)O)C(=O)N(C)CC(=O)N(C)[C@@H](CC(C)C)C(=O)N[C@H](CC(C)C)C(=O)N(C)[C@H](CC(C)C)C(=O)N[C@H](C)C(=O)O[C@@H](C(C)C)C(=O)N1C [Example 6] (cyclo([Hiv][dNMeL][dL][dNMeV][X30][d(aThr)][Sar][NMeL][dL][dNMeL][dA]))", "25 to 50 µM"],
  ["CC(C)C[C@@H]1C(=O)N[C@H](CC(C)C)C(=O)N(C)[C@H](C(C)C)C(=O)N(C)[C@H]([C@H](O)[C@H](C)CCN(C)CCC#N)C(=O)N[C@H]([C@@H](C)O)C(=O)N(C)CC(=O)N(C)[C@@H](CC(C)C)C(=O)N[C@H](CC(C)C)C(=O)N(C)[C@H](CC(C)C)C(=O)N[C@H](C)C(=O)O[C@@H](C(C)C)C(=O)N1C [Example 27] (cyclo([Hiv][dNMeL][dL][dNMeV][X11][d(aThr)][Sar][NMeL][dL][dNMeL][dA]))", "> 100 µM"],
  ["CC(C)C[C@@H]1C(=O)N[C@H](CC(C)C)C(=O)N(C)[C@H](C(C)C)C(=O)N(C)[C@H]([C@H](O)[C@H](C)CCNCc2ccccc2)C(=O)N[C@H]([C@@H](C)O)C(=O)N(C)CC(=O)N(C)[C@@H](CC(C)C)C(=O)N[C@H](CC(C)C)C(=O)N(C)[C@H](CC(C)C)C(=O)N[C@H](C)C(=O)O[C@@H](C(C)C)C(=O)N1C [Example 35] (cyclo([Hiv][dNMeL][dL][dNMeV][X18][d(aThr)][Sar][NMeL][dL][dNMeL][dA]))", "25 to 50 µM"],
  ["Cc1cccc(CCC[C@@H](C)[C@@H](O)[C@@H]2C(=O)N[C@H]([C@@H](C)O)C(=O)N(C)CC(=O)N(C)[C@@H](CC(C)C)C(=O)N[C@H](CC(C)C)C(=O)N(C)[C@H](CC(C)C)C(=O)N[C@H](C)C(=O)O[C@@H](C(C)C)C(=O)N(C)[C@H](CC(C)C)C(=O)N[C@H](CC(C)C)C(=O)N(C)[C@H](C(C)C)C(=O)N2C)n1 [Example 17] (cyclo([Hiv][dNMeL][dL][dNMeV][X1][d(aThr)][Sar][NMeL][dL][dNMeL][dA]))", "10 to 25 µM"]
]}
